Assay: Terminal half life in Sprague-Dawley rat at 10 mg/kg, iv
Assay type: ADME, organism-based
Design: dose 10 mg/kg, route intravenous
Conditions: in vivo, read-out: beta t1/2
parameterMeasured: half-life (h)
Kindly provide the numeric value in h only, without the unit symbol.

In: Give its half-life value. Item: Clc1ccc(COc2ccccc2/C=N/OC2CCN(Cc3ccccc3)C2)cc1Cl (stereo unspecified)
Out: 2.35
